target: T1, RBD domain of the spike protein of SARS-CoV-2 virus (Acro Biosystems SPD-C52H3) (SARS-CoV-2, UniProt P0DTC2 319-537); assay: Affinity (SPR) by Octet; antigen not named, taken from the epitope column
T1 construct: domain: RBD domain
Measurement Kind: Kd

Just so you know, measured Kd for YANG-1114 (antibody, V domains shown) VH: EVHLVESVGGLVKPGGSLRLSCAASGFTFSSYSMNWVRQAPGKGLEWVSSISTGSSYIFYADSVKGRFTISRDNAKNSLYLQMNSLRAEDTAVYYCAKTGDLPFFDYWGQGTLVTVSS VL: QSALTQPASVSGSPGQSITISCTGTSSDVGRYNYVSWYQQHPGKAPKLMIYEVSNRPSGVSNRFSGSKSGNTASLTISGLQAEDEADYYCSSYTSSSTMVFGGGTKLTVL came out at < 0.1 nM

Memo: YANG-1116 (antibody, V domains shown) VH: EVQLVESGGGLVKPGGSLRLSCEASGFNFRSYALNWVRQAPGKGLEWVSSISTGSSYIFYADSVKGRFTISRDNAKNSLSLQMNSLRAEDTAVYYCAKTGDLPFFDYWGQGTLVTVSS VL: QSALTQPASVSGSPGQSITISCTGTSSDVGRYNYVSWYQQHPGKAPKLMIYEVSNRPSGVSNRFSGSKSGNTASLTISGLQAEDEADYYCISYTSSSTMVFGGGTKLTVL , reported Kd: < 0.1 nM

Reported Kd of YANG-1107 (antibody, V domains shown) VH: EVQMVESGGGLIQSGGSLRLSCAASGLSVSSNYMSWVRQAPGKGLEWVAVIYSGGSIFYADSVKDRFTISRDNSKNTLYLQMNSLRAEDTAVYYCARENWNYVFDCWGQGTLVTVSS VL: DIQLTQSPSFLSASVGDRVTITCWASQGISTYLAWYQQKPGKAPKLLIYAASTLQSGVPSRFSGSGSGTEFTLTISSLQPEDFATYYCQQLSSHPIIFGQGTRLEIK : < 0.1 nM

Sure, the documented Kd for YANG-1119 (antibody, V domains shown) VH: EVQLVESGGGLVKPGGSLRLSCAASGFTFSSYSMNWVRQAPGKGLEWVSSISTGSSYIFYADSVKGRFTISRDNAKNSLYLQMNSLRAEDTAVYYCAKTGDLPFFDYWGQGTLVTVSS VL: QSALTQPASVSGSPGQSITISCTGTSSDVGRYNYVSWYQQHPGKAPKLMIYEVSNRPSGVSNRFSGSKSGNTASLTISGLQAEDEADYYCSSYTSSSTMVFGGGTKLTVL is < 0.1 nM

Field Kd (entry YANG-1108 (antibody, V domains shown) VH: QVQLVESGGGVVHPGRSLRLSCVVSGFTFSGYGMYWVRQAPGKGLEWVAVISKDGSDKYYADSVKGRFTISRDNSKNTLNLQMNSLRAEDTAVFYCAKERTFQGSGSYYNNYFYYGMDVWGQGTTVTVSS VL: AIQLTQSPSSLSASVGDRVTITCRASQGISSALAWYQQKPGKAPNLLIYDASSLESGVPSRFSGSGFGTDFTLTINSLQPEDFASYYCQQFKSYPLTFGGGTKVEIK ) reads < 0.1 nM
